Assay: Cytotoxicity against human CEM cells
Assay type: cell-based
Settings: CEM (CCRF-CEM) cells, read-out: TC50 (the source's name)
Overview of reported CC50 across a group of molecules:

// below: answered molecules
O=C(NCCO)c1cn(Cc2ccccc2)c2ccccc2c1=O	> 100 µM
COC(=O)[C@H](CO)NC(=O)c1cnc2c(F)cc(F)cc2c1Cl	> 100 µM

Proceed to the following item.
[in] Report CC50 for `COC(=O)[C@@H](NC(=O)c1cnc2ccccc2c1Cl)[C@@H](C)O` please.
[out] > 100 µM

----------
Assay: Cytotoxicity against human CEM cells
Assay type: cell-based
Conditions: CEM (CCRF-CEM) cells, read-out: TC50 (the source's name)
MEASURE_NAME: CC50

Guide cases for CC50, answers given:
COC(=O)[C@H](CO)NC(=O)c1cnc2ccc(F)cc2c1Cl	> 100 µM
COC(=O)[C@H](CO)NC(=O)c1cnc2c(C)cccc2c1Cl	> 100 µM
C[C@@H](CO)NC(=O)c1cnc2ccccc2c1Cl	> 100 µM

[in] What value of measured CC50 is listed for `O=C(NCCO)c1cn(CCO)c2ccccc2c1=O` ?
[out] > 100 µM

[in] Okay, and `COC(=O)[C@@H](NC(=O)c1cnc2ccccc2c1Cl)C(C)C` ?
[out] 17.6 µM

[in] Param item: `O=C(N[C@H](CO)Cc1ccccc1)c1cnc2ccccc2c1Cl`
[out] > 100 µM

[in] Field entry: `COC(=O)[C@H](CO)NC(=O)c1cnc2ccccc2c1Cl`
[out] > 100 µM

[in] Another molecule to check: `COC(=O)[C@H](Cc1c[nH]c2ccccc12)NC(=O)c1cnc2ccccc2c1Cl`
[out] > 100 µM

[in] Please answer likewise for `COC(=O)[C@H](CO)NC(=O)c1cnc2cc(Cl)ccc2c1Cl`
[out] > 100 µM

[in] // same read-out, input: `Cn1cc(C(=O)NCCO)c(=O)c2ccccc21`
[out] > 100 µM

[in] Follow-up entry: `O=C(NCCCO)c1cnc2ccccc2c1Cl`
[out] > 100 µM

[in] Moving on to the next molecule: `COC(=O)[C@H](CSC)NC(=O)c1cnc2ccccc2c1Cl`
[out] 68.4 µM

[in] Input `COC(=O)[C@H](C)NC(=O)c1cnc2ccccc2c1Cl`
[out] 81.3 µM

[in] Same read-out for `O=C(NCCO)c1c[nH]c2ccccc2c1=O` ?
[out] > 100 µM

----------
Catalogue of CC50 values
Assay: Cytotoxicity against human CEM cells
Format: cell-based
Settings: CEM (CCRF-CEM) cells, read-out: TC50 (the source's name)

COC(=O)[C@H](CC(C)C)NC(=O)c1cnc2ccccc2c1Cl	49.1 µM
COC(=O)[C@H](CO)NC(=O)c1cnc2c(Cl)cccc2c1Cl	> 100 µM
CC[C@H](C)[C@H](NC(=O)c1cnc2ccccc2c1Cl)C(=O)OC	23.3 µM

[in] Using the record for `COC(=O)[C@H](CO)NC(=O)c1cnc2ccc(C)cc2c1Cl` , report its CC50.
[out] > 100 µM

[in] Likewise for `O=C(NCCO)c1c[nH]c2ccc(Cl)cc2c1=O` ?
[out] > 100 µM

[in] Next entry: `O=C(NCCO)c1cn(Cc2ccc(F)cc2)c2ccccc2c1=O`
[out] > 100 µM

[in] Another: `CC(C)C[C@@H](CO)NC(=O)c1cnc2ccccc2c1Cl`
[out] > 100 µM

[in] Repeat with `COC(=O)[C@@H](NC(=O)c1cnc2cc(C)ccc2c1Cl)[C@@H](C)O`
[out] > 100 µM

[in] Same thing, different molecule: `COC(=O)[C@H](Cc1ccccc1)NC(=O)c1cnc2ccccc2c1Cl`
[out] > 100 µM

[in] Lookup `CCOC(=O)[C@H](CO)NC(=O)c1cnc2ccccc2c1Cl`
[out] > 100 µM

Values compiled from ChEMBL document CHEMBL1152759.
